Assay: Model-predicted AUCτ in BP and CVF and CVF:BP AUC ratios
Format: in vivo, HIV-infected pre-menopausal women
Conditions: female, human, CVF, oral, CVF AUCτ, multiple dose; median (25th, 75th percentiles); model-predicted
Recorded metric: AUC (ng·h/mL)
Give bare numbers, in ng·h/mL.

Query block: Field request: AUC | item: O=C1Nc2ccc(Cl)cc2[C@@](C#CC2CC2)(C(F)(F)F)O1
Result block: 0.262

###

Assay: Model-predicted AUCτ in BP and CVF and CVF:BP AUC ratios
Format: in vivo, HIV-infected pre-menopausal women
Settings: female, human, in vivo, 300 mg, BP AUCτ
Recorded metric: AUC (ng·h/mL)
Give bare numbers, in ng·h/mL.

Query block: Look at this molecule and give its reported AUC. Nc1ccn([C@@H]2CS[C@H](CO)O2)c(=O)n1
Result block: 10.1
